// data source = patent US20230098944A1

- experimental-protocol: Plasma and CSF pharmacokinetics from NCT03522129
- Type: in vivo, human
- reported-conditions: human, plasma, 560 mg; Subject 90001; single dose of CT1812 (560 mg)
parameter: AUC(0-t) (ng·h/mL)
Answer with a number only, understood to be in ng·h/mL.

Item: CC(C)(C)Oc1cc(CCC(C)(C)N2Cc3ccc(S(C)(=O)=O)cc3C2)ccc1O | AUC(0-t): 3160

---

- experimental-protocol: Plasma and CSF pharmacokinetics from NCT03522129
- Format: in vivo, human
- reported-conditions: human, plasma, 560 mg; Subject 90001; single dose of CT1812 (560 mg)
parameter: Cmax (ng/mL)
Field format: number, assumed ng/mL, no unit text.

Lab note: measured Cmax of CC(C)(C)Oc1cc(CCC(C)(C)N2Cc3ccc(S(C)(=O)=O)cc3C2)ccc1O was 695
